Target Under Test: UniProt B2WTH9
Sequence (B2WTH9 1-1311): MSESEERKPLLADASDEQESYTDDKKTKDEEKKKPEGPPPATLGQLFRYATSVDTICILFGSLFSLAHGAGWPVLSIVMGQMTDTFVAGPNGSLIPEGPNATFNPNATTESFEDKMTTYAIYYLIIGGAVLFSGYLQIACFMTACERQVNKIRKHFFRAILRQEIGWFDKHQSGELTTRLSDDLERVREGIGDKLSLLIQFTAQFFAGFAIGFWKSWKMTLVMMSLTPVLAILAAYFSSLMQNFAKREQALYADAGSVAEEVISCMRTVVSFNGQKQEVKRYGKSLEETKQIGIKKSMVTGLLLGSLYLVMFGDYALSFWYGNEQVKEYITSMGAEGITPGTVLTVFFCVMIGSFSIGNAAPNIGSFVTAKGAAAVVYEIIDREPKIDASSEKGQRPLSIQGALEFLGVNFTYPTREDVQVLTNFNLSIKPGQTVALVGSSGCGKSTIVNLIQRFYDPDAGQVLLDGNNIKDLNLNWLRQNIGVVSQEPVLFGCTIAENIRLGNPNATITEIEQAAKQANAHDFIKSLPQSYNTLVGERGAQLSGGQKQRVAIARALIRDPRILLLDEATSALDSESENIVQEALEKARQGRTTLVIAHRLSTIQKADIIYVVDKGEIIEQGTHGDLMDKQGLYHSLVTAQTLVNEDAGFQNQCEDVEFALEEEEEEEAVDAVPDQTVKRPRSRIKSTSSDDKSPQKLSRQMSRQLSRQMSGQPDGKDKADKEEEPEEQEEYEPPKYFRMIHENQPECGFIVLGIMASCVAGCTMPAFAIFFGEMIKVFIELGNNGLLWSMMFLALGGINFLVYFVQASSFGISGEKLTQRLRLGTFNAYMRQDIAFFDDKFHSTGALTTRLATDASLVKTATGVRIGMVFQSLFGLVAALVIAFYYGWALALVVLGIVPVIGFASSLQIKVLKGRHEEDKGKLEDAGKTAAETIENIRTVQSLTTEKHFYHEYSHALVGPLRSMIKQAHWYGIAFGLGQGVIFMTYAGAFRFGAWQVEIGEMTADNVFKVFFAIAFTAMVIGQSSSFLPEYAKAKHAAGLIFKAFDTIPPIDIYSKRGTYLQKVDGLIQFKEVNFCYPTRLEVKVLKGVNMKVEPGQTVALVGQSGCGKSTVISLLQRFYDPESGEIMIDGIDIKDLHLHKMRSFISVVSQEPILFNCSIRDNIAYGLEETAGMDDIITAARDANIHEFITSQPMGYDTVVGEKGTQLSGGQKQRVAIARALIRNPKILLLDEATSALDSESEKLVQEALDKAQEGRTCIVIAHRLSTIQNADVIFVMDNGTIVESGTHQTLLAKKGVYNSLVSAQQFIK
Test Method Notes: Competitive substrate/transporter inhibition assay: rhodamine B accumulation in mussel gill tissue disks
Format: cell-based
Condition Notes: concentration causing 10% of maximal inhibition; mean ± SD; probit regression; 1 μM rhodamine B, 90 min, 15°C
Listing of entries alongside the reported IC10.
Answer format: numeric, nM implied, no suffix.

As a guide, the following entries are already answered.
CC(=O)c1cc(C(C)(C)C)cc2c1CCC2(C)C: 390
CC1COCc2cc3c(cc21)C(C)(C)C(C)C3(C)C (centres unmarked): 370
CC(=O)c1cc2c(cc1C)C(C)(C)C(C)C2C(C)C (centres unmarked): 320
CC(=O)c1c(C)c([N+](=O)[O-])c(C(C)(C)C)c([N+](=O)[O-])c1C: 90

Summary line: `Cc1c([N+](=O)[O-])c(C)c([N+](=O)[O-])c(C(C)(C)C)c1[N+](=O)[O-]` , UniProt B2WTH9, reported IC10 = 140
